Value source: ChEMBL document CHEMBL1201862

# Tested on: PC-3
# assay details: NCI tumour cell line growth inhibition, 48 h
Active and inactive are the calls of the source. No stated cut-off is given here; in the data, active = GI50 up to about 1.1 µM and inactive = higher. Where a SMILES comes first, the peptide text is derived from it. The star is where a group is joined. Boc = CC(C)(C)OC(=O)*
Please answer using one outcome listed in 1 = active, -1 = inactive

For orientation, consider the following solved cases.
Asked: Outcome logged for CC(=O)OCC1OC(n2c(-c3ccccc3)c(C(C)=O)c(-c3cccc4ccccc34)c(C#N)c2=S)C(OC(C)=O)C(OC(C)=O)C1OC(C)=O (centres undefined) in this assay:
Given back: -1

Asked: Outcome logged for "Cc1ccc2nc3[nH]nc(N)c3nc2c1" in this assay:
Given back: -1

Asked: Outcome logged for "c1cc(-c2sc(-c3ccncc3)c(-c3ccncc3)c2-c2ccncc2)ccn1" in this assay:
Given back: -1

Asked: Outcome logged for "COc1cc(O)c2c(=O)c(OC)c(-c3ccc4c(c3)OCO4)oc2c1OC" in this assay:
Given back: -1

Asked: Outcome logged for "CCCCc1ccc(Nc2nc(S)c3[nH]cnc3n2)cc1" in this assay:
Given back: -1

Asked: Outcome logged for "CN(C)CCCOCCn1c2c(c3ccccc31)CCCC2" in this assay:
Given back: -1

Asked: Outcome logged for CC(C)(C)OC(=O)NC(Cc1ccccc1)C(=O)N1CCCC1C(N)=O (stereo not drawn) (Boc-Phe-Pro-NH2; configuration not given here) in this assay:
Given back: -1

Asked: Outcome logged for "Cc1cccc(-n2c(C)nc3ccc(NC(=S)Nc4ccccc4)cc3c2=O)c1" in this assay:
Given back: -1

Continuing:
Asked: Outcome logged for "CCN(CC)c1ccc(NC(=S)NN(C)C)cc1" in this assay:
Given back: -1

Asked: Outcome logged for "C=CCNC1=C2C[C@@H](C)C[C@@H](OC)[C@H](OC(=O)CN)[C@H](C)/C=C(\C)[C@@H](OC(N)=O)[C@H](OC)/C=C\C=C(/C)C(=O)NC(=CC1=O)C2=O" in this assay:
Given back: 1

Asked: Outcome logged for "COc1ccc(/C=C2\N=C(SC)N(CN3CCCCC3)C2=O)cc1" in this assay:
Given back: -1

Asked: Outcome logged for "CCOC(=O)Cc1c(C)c2cc(C(=O)c3ccccc3)c(O)cc2oc1=O" in this assay:
Given back: -1

Asked: Outcome logged for "c1ccc2c(c1)N=c1ccccc1=P21c2ccccc2Nc2ccccc21" in this assay:
Given back: 1

Asked: Outcome logged for CCOC(=O)c1cc(C2(OC)CCN(Cc3ccccc3)C2=O)c(-c2cc(C)no2)[nH]1 (centres undefined) in this assay:
Given back: -1

Asked: Outcome logged for "CCOc1ccc(NCc2cc(OC)c(OC)c(OC)c2)cc1" in this assay:
Given back: -1

Asked: Outcome logged for "CO[C@@H]1C[C@H]2[C@@H]3CC[C@H]([C@@H](C)CO)[C@@]3(C)CC[C@@H]2[C@@]2(C)CC[C@H]3C[C@]312" in this assay:
Given back: -1
